All figures here come from PubChem BioAssay (NCI).

# procedureSummary: NCI Yeast Anticancer Drug Screen. Data for the sgs1 mgt1 strain (AID 161)
# conditionNotes: S. cerevisiae sgs1 mgt1 strain, at 50.0 µM
About 79,000 compounds went through this panel and 15% of them were active in at least one assay; those are over-represented in the sample as a whole. The source made the active and inactive calls. No stated cut-off is given here; in the data, active means growth inhibition above about 70%; inactive means the rest.
Outcomes: YES for active, NO for inactive

1. COC(=O)C(Br)(C(=O)OC)C(c1ccccc1)c1ccccc1	YES
2. N#CC(C(=N/NC(N)=S)/C(=N/NC(N)=S)C(C#N)c1ccc(Cl)cc1)c1ccc(Cl)cc1 (stereo unspecified)	NO
3. CN1CCCN(C)CCCN(C)CCCN(C)CCC1	NO
4. CCCCCCCSCC(O)COC(c1ccccc1)(c1ccccc1)c1ccccc1 (stereo unspecified)	NO
5. Cc1c(C)n(S(=O)(=O)c2ccccc2)c2ccccc12	NO
6. CCc1c(C)nc2[nH]ncn2c1=O	NO
